Target desc: human NaV1.8 ion channel (Homo sapiens (Human))
Sequence (Q9Y5Y9 whole entry): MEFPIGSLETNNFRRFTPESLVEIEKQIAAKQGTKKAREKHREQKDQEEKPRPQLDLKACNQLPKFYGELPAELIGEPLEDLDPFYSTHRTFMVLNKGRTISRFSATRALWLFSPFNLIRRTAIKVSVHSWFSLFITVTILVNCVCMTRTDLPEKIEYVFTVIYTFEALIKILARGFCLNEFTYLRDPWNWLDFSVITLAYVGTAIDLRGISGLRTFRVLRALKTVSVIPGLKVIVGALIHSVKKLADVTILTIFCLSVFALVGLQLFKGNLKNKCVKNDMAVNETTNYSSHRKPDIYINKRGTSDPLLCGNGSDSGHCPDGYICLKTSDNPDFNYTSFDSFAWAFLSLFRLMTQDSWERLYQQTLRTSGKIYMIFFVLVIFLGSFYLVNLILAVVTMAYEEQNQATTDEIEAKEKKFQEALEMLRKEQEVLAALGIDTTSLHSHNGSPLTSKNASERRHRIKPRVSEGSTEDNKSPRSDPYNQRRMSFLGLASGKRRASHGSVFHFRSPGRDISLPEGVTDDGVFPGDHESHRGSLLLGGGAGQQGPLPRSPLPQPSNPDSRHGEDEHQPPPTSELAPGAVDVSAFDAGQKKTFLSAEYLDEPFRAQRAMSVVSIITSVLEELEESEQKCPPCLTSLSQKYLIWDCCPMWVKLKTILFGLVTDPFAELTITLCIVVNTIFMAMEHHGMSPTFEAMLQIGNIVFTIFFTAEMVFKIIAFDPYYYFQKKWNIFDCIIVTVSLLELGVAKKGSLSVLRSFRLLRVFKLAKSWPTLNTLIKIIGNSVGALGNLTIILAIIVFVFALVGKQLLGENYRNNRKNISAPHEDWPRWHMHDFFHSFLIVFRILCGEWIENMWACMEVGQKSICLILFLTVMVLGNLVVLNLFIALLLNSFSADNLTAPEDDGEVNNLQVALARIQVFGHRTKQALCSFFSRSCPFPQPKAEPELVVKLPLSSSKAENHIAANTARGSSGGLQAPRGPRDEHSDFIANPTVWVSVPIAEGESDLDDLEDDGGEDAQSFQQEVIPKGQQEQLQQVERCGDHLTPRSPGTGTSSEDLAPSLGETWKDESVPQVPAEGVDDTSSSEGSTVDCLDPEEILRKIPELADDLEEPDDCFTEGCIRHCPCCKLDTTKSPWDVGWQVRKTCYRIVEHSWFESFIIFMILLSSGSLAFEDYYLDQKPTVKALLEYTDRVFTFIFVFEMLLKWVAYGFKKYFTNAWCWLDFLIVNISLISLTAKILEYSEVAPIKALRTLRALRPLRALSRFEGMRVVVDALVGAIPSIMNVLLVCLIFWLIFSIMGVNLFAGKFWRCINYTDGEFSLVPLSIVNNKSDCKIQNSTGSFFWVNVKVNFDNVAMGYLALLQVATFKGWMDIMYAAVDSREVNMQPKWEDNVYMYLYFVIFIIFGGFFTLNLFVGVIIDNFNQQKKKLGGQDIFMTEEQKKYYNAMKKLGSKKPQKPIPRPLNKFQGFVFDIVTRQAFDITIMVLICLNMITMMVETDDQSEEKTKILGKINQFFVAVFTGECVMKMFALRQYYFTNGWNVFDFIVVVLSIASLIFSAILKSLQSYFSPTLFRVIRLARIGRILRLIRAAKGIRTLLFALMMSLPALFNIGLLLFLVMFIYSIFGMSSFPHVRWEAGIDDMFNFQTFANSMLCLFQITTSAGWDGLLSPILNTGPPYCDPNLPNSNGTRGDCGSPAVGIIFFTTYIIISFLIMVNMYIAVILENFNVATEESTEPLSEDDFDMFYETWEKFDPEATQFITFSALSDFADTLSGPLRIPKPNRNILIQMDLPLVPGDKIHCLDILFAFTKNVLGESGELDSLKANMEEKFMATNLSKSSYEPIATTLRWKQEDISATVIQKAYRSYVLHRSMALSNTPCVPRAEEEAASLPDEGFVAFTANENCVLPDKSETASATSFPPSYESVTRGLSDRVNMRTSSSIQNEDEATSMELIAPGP
Protocol description: Compound inhibition activity on human NaV1.8 ion channel in HEK293 cells (whole-cell patch clamp)
Format: cell-based
Run conditions: 100 nm concentration; HEK293 cells, resting protocol; read-out: Inhibition ratio of compounds against Nav1.8 (Activity of inhibition)
Readout label: inhibition at 0.1 µM

{"columns": ["Compound", "inhibition at 0.1 µM"],
 "data": [
  ["Cc1cc(F)ccc1Oc1cc(C2CC2)c(C(F)(F)F)cc1C(=O)Nc1ccc(F)c(OCCNS(C)(=O)=O)c1", "20 to 50%"]
]}

The recorded inhibition at 0.1 µM for entry Cc1cc(F)ccc1Oc1cc(C(F)(F)F)c(Cl)cc1C(=O)Nc1cnnc(OCC(O)CO)c1 (centres unmarked) equals 50 to 80%

The recorded inhibition at 0.1 µM for entry Cc1cc(F)ccc1Oc1cc(C2CC2)c(C(F)(F)F)cc1C(=O)Nc1ccnc(OCC(O)CNC(C)(C)C)c1 (centres unmarked) equals 20 to 50%
